Test system: S. aureus (CCUG 1800)
runDescription: Minimal microbicidal concentration (MMC99) assay, S. aureus
Format: cell-based
experimentalSetup: screen 2; 50% heat inactivated simulated wound fluid; 2 hours
Where MMC99 μM in 50% SWF equals or exceeds 50 µM, the correct label is 1.0; where it does not, the label is 0.0.

QSEATKRFQWLRNLRKVLWW [Peptide 212]: 1.0
RLWRRLMRKVR [Peptide 238]: 1.0
WRRWLRKMVKRL [Peptide 249]: 0.0
RRLWRRWMRKVL [Peptide 232]: 0.0
RWCFLWRRLMRKHRRL [Peptide 240]: 0.0
QSLARTFKQWARNLRKVL [Peptide 209]: 1.0
KRQSLARTFKQWARNLRKVL [Peptide 215]: 0.0
RWCKLWRRLMRKVRRL [Peptide 239]: 0.0
CWLWRRAMRKVW [Peptide 230]: 1.0
WCKLWRRLMRKVRR [Peptide 241]: 0.0
QSLARKLFQWLRNLRKVA [Peptide 220]: 0.0
QSEATKRFQWLRNLRKVLKR [Peptide 211]: 1.0
RSLAQKLFQWLRNLRKVR [Peptide 219]: 0.0
NSLFEKLAQWLRQLRKVR [Peptide 222]: 1.0
QSERKKRFQWLRNLRKVL [Peptide 206]: 1.0
QSEATKRFQWLRNLRKVLGP [Peptide 213]: 1.0
